Quick reference: viability, T/C of the listed items.
# System: 596521-263-R-J1-PDC complex spheroid growth
# ASSAY_OVERVIEW: Anticancer human tumor 596521-263-R-J1-PDC patient-derived soft tissue sarcoma cell line growth inhibition [Asc]
# PROTOCOL_CONDITIONS: second compound 1 µM; first compound 0.1 µM; stronger effect = lower value

Recorded viability, T/C, per entry:
Problem: Which measured viability, T/C belongs to CCN1CCN(Cc2ccc(Nc3ncc(F)c(-c4cc(F)c5nc(C)n(C(C)C)c5c4)n3)nc2)CC1 + CNC(C)C(=O)NC1CN(S(=O)(=O)c2cccc(S(=O)(=O)N3CCC4CCC(C(=O)NC(c5ccccc5)c5ccccc5)N4C(=O)C(NC(=O)C(C)NC)C3)c2)CCC2CCC(C(=O)NC(c3ccccc3)c3ccccc3)N2C1=O , tested on 596521-263-R-J1-PDC complex spheroid growth?
Solution: 70.7%

Problem: Repeat for the following compound: O=C(c1cc(Cc2n[nH]c(=O)c3ccccc23)ccc1F)N1CCN(C(=O)C2CC2)CC1 + CNC(C)C(=O)NC1CN(S(=O)(=O)c2cccc(S(=O)(=O)N3CCC4CCC(C(=O)NC(c5ccccc5)c5ccccc5)N4C(=O)C(NC(=O)C(C)NC)C3)c2)CCC2CCC(C(=O)NC(c3ccccc3)c3ccccc3)N2C1=O
Solution: 71.5%

Okay, next one:
Problem: Which measured viability, T/C belongs to O=C(c1cc(Cc2n[nH]c(=O)c3ccccc23)ccc1F)N1CCN(C(=O)C2CC2)CC1 + Cc1c(S(C)(=O)=O)c(-c2cc(F)cc(N3CCN(c4ccc(NS(=O)(=O)c5ccc(NC(CCN6CCC(C(=O)OCCCP(=O)(O)O)CC6)CSc6ccccc6)c(S(=O)(=O)C(F)(F)F)c5)cc4)CC3)c2)c(-c2ccc(Cl)cc2)n1C(C)C , tested on 596521-263-R-J1-PDC complex spheroid growth?
Solution: 80.1%

====

Quick reference: viability, T/C of the listed items.
# System: 596521-263-R-J1-PDC complex spheroid growth
# ASSAY_OVERVIEW: Anticancer human tumor 596521-263-R-J1-PDC cell line growth inhibition [Asc];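 further: spheroids exposed to compounds for 7 days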
# PROTOCOL_CONDITIONS: second compound 0.0949 µM; first compound 1 µM; stronger effect = lower value
Numbers only here, please. The scale is %.

Recorded viability, T/C, per entry:
Problem: Given O=C(c1ccc(F)c(F)c1Nc1ccc(I)cc1F)N1CC(O)([C@@H]2CCCCN2)C1 + CCN1C(C(=O)NC23CCC(C(=O)O)(CC2)CC3)C(c2cccc(Cl)c2F)C2(C(=O)Nc3cc(Cl)ccc32)C12CCCCC2 , state its recorded viability, T/C.
Solution: 34.3

Problem: Repeat for the following compound: COc1c(OCCCN2CCOCC2)ccc2c3n(c(=NC(=O)c4cnc(N)nc4)nc12)CCN3 + CCN1C(C(=O)NC23CCC(C(=O)O)(CC2)CC3)C(c2cccc(Cl)c2F)C2(C(=O)Nc3cc(Cl)ccc32)C12CCCCC2
Solution: 31.4

Problem: Repeat for the following compound: C=C(F)C(=O)N1CCN(c2nc(OCC3CCCN3C)nc3c2CCN(c2cccc4cccc(Cl)c24)C3)CC1CC#N (centres undefined) + CCN1C(C(=O)NC23CCC(C(=O)O)(CC2)CC3)C(c2cccc(Cl)c2F)C2(C(=O)Nc3cc(Cl)ccc32)C12CCCCC2
Solution: 101

Okay, next one:
Problem: Given C#Cc1c(F)ccc2cc(O)cc(-c3ncc4c(N5CC6CCC(C5)N6)nc(OCC56CCCN5CC(F)C6)nc4c3F)c12 (centres undefined) + CCN1C(C(=O)NC23CCC(C(=O)O)(CC2)CC3)C(c2cccc(Cl)c2F)C2(C(=O)Nc3cc(Cl)ccc32)C12CCCCC2 , state its recorded viability, T/C.
Solution: 92
